Ref: patent US20250313612A1

Reported Neut IC50 subtype B by item:
target: RSV F protein of recombinant mKate-RSV, subtype B (18537) (Respiratory syncytial virus subtype B …, UniProt P13843 26-574); experiment: cell-based or functional assay

ADI-14452 (antibody, V domains shown, full-length IgG (yeast-expressed); also called Antibody Number 15; Ab# 15) VH: QVQLVQSGAEVKKPGSSVKVSCEASGDTFTSYAVIWVRQAPGQGLEWMGSIIPIFQTINYAPKFQGRVTLSADGSTRTVYMELGSLRSEDTAIYFCATKRYCTSPSCHGLWYFNLWGRGTLVTVSS VL: DIVMTQSPLSLPVTPGEPASISCRSSKSLLDSDDGNTYLDWYLQKPGQSPQILIYMLSHRASGVPDRFSGSGSGTDFTLKISRVEAEDVGVYYCMQRVEYPYSFGQGTKVEIK
0.157 µg/mL

## Task Form field: reported Neut IC50 subtype B of ADI-14499 (antibody, V domains shown, full-length IgG (yeast-expressed); also called Antibody Number 60; Ab# 60) VH: QVQLVQSGPALVKPTQTLTLTCTFSGFSLTTRGVGVGWIRQTPGKALECLGFIYWDDDMNYNPSLRGRVTITRDTSKNQVVLTMTNMAPVDTGTYYCVHSDLYDSSGYYLYYFDYWGQGTLVTVSS VL: DIRLTQSPSSLSASVGDRVTITCRASQPIASYLNWYQQKPGKAPKLLIYAASNLQSGVPSTFSGRGSGTDFSLTISTLQPEDIATYYCQQSYTSPYTFGQGTKVEIK
## Result > 10 µg/mL

## Task Note, next up: ADI-14490 (antibody, V domains shown) VH: QVQLVQSGGGVVQPGRSLRLSCAASGFTFSNYGMHWVRQAPGKGLEWVAVIWYDGSNKYYADSVKGRFTISRDNSKNTVYLQMNSLRADDTAVYYCARDAIFGSGPNWFDPWGQGTLVTVSS VL: QSVLTQPPSVSGAPGQRVTISCTGSSSNIGAGYDVHWYQQLPGTAPKLLIYGSSNRPSGVPDRFSGSKSGTSASLAITGLQAEDEADYYCQSYESSLRGWVFGGGTKVTVL
## Result 0.113 µg/mL

## Task Note, next up: ADI-14460 (antibody, V domains shown, full-length IgG (yeast-expressed); also called Antibody Number 23; Ab# 23) VH: QVQLQQWGAGLLKPSETLSLSCTVSGGVFGNYFWSWVRQAPGKGLEWIGEINQIGTTNYSPSASLKSRVTISVDPSRNQFSLSLRSVTAADTARYYCTRSETSDYFDSSGYAFHIWGEGTMVTVSS VL: LPVLTQPASVSGSPGQSITISCSGISSDGGRYNYVSWYQQHPGKAPKLLIYDDSNWPLGVSHRFSGSKSGNTASLTISGLRAEDEADYYCGSYTDTNRLFGGGTQLTVL
## Result 0.239 µg/mL

## Task Note, next up: ADI-14438 (antibody, V domains shown, full-length IgG (yeast-expressed); also called Antibody Number 1; Ab# 1) VH: QVQLVQSGAEVKKPGASVKVSCRASGFVFTSYDINWVRQAPGQGLEWMGRMNAHTGQVTYAQKFQDKVSMTRDVSITTAYLELSRLASEDTAVYYCARPDINWGQDAFDVWGQGTMVTVSS VL: DIRMTQSPSTLSASIGARVTITCRASQNIGNFLAWYQQKPGKAPKLLIYKASTLDPGVPSRFSGSGSGTEFTLTITSLQPDDFATFYCQQYKSDPTFGQGTKVEIK
## Result 0.237 µg/mL

## Task Note, next up: ADI-14498 (antibody, V domains shown, full-length IgG (yeast-expressed); also called Antibody Number 59; Ab# 59) VH: EVQLVESGPTLVKPTQTLTLTCTFSGFSLTTRGMGVGWIRQPPGRSLEWLAVIYWDGDVRYSPSLKGRLTITKDTPKNQVVLTMTNMDPVDTATYYCVHSDLYDRNAYYLHYFDFWGQGTLVTVSS VL: DIRLTQSPSSLSASVGDRVTITCRASQIIASYLNWYQQKPGKAPNLLIFAASSLQSGVPSRFRGSGSGTDFTLTISSLQPEDFATYYCQQSYSIPYTFGQGTKLEIK
## Result > 10 µg/mL

## Task Note, next up: ADI-14462 (antibody, V domains shown) VH: QVQLVQSGGGVVQPGGSLRLSCAAYGLTFRAYGMHWVRQAPGKGLEWVAVSWYDGTNEVYADSVKGRFRISRDDSRSTLYLQMNSLRGEDTAVYYCATERMWEENSSSFGWWGRGTLVTVSS VL: QAVLTQPASVSGSPGQSITISCTGSSSDVGGSNFVSWYQQHPGKAPKLMVYDVNHRPSGISNRFSGSKSGNTASLTISGLQAEDEADYYCTSYTSRSSYVFGSGTKVTVL
## Result 2.63 µg/mL

## Task Note, next up: ADI-14512 (antibody, V domains shown, full-length IgG (yeast-expressed); also called Antibody Number 73; Ab# 73) VH: EVQLVESGAEVKKPGSSVKVSCKVVGGSFSNYGISWVRQAPGQGPEWMGGIIPAFKTAKYAKKFEDRVTITADESTSTAYMEVSGLRSDDTALYYCARPERDFGHLKWLRSPFDYWGQGTLVTVSS VL: ETTLTQSPATLSVSPGERVTLSCRASQGVSINLAWYQQKPGQAPRLLIYGASTRATDIPARFSGSGSGTDFTLTISSLQSEDFAVYYCQQYNDWPPQLTFGPGTKVEIK
## Result > 10 µg/mL

## Task Note, next up: ADI-14483 (antibody, V domains shown, full-length IgG (yeast-expressed); also called Antibody Number 44; Ab# 44) VH: QVQLVQSGGRLVKPGGSLRLSCGMSGFGFSSYRMNWVRQAPGKGLEWISSISASSSYTDYANSVKGRFTISRDGANLFLQMNSLRVEDTAVYYCARDWGGHSIFGAVQDLWGQGTLVTVSS VL: QSVLTQPPSVSGAPGQRVTISCSGSSSNIGAGYDVHWYQQLPGTAPKLLIYGNTNRPSGVPDRFSGSKSGTSASLAITGLQAEDEADYYCQSYDRSLSQVFGAGTKVTVL
## Result 0.03 µg/mL

## Task Note, next up: ADI-14493 (antibody, V domains shown) VH: QVQLQQWGTGLVKPSETLSLTCAVSGGAFSGHQWNWFRQPPGKGLEWIGEINVSGNTHYNVSLRSRVTISLDESKKQFSLKMTSVTAADTAIYYCAKASSGSYHFEYWFDPWSQGTMVTVSS VL: SYELTQPPSVSVAPGKMAWFTCGGSDIGSKRVHWYQQKPGQAPVLLVYDDSLRPSGTSARVSGSTSGNTATLSIISVEAGDEADYFCQVWDDADDHAVFGGGTKLTVL
## Result 1.27 µg/mL
